Would you mind telling me the reported kon of each entry?
Target: T1, PD-1 (analyte in the BIAcore X100 assay) (UniProt Q15116 25-167, limits assumed)
T1 construct: also called Programmed Cell Death 1
T1 sequence (Q15116 25-167 limits assumed): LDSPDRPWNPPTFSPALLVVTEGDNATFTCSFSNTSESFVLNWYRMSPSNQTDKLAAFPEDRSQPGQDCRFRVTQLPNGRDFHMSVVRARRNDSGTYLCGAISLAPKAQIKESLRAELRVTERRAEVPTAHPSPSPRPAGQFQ
Test: SPR, BIAcore X100, antibody captured by anti-human IgG on CM5 chip, PD-1 as analyte
Numbers only, in M⁻¹ s⁻¹.

See these solved cases before continuing.
DFPD1-9 full-length anti-PD-1 monoclonal antibody (antibody, human IgG4 S228P, kappa, V domains shown, Expressed in HEK293E cells and purified on protein A) VH: QVQLVESGGGVVQPGRSLRLDCKASGITFSNYGMHWVRQAPGKGLEWVAVIWYDSSRKYYADSVKGRFTISRDNSKNTLFLQMNSLRAEDTAVYYCATNNDYWGQGTLVTVSS VL: DIQMTQSPSSLSASVGDRVTITCRASQSIHNYLDWYQQKPGKAPKLLIYNASTRATGVPSRFSGSGSGTDFTLTISSLQPEDFATYYCQQELHLPLTFGQGTKVEIKR : 16300
DFPD1-11 full-length anti-PD-1 monoclonal antibody (antibody, human IgG4 S228P, kappa, V domains shown, Expressed in HEK293E cells and purified on protein A) VH: QVQLVESGGGVVQPGRSLRLDCKASGITFSNNGMHWVRQAPGKGLEWVAVIWYDSSRKYYADSVKGRFTISRDNSKNTLFLQMNSLRAEDTAVYYCATNNDYWGQGTLVTVSS VL: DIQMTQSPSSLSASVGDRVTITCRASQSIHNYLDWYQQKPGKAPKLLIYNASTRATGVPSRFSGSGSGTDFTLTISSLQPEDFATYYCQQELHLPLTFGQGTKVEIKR : 9360
DFPD1-13 full-length anti-PD-1 monoclonal antibody (antibody, human IgG4 S228P, kappa, V domains shown, Expressed in HEK293E cells and purified on protein A) VH: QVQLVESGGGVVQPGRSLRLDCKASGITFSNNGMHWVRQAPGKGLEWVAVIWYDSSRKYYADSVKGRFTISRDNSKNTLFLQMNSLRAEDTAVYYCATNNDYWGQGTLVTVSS VL: DIQMTQSPSSLSASVGDRVTITCRASQSVSNYLDWYQQKPGKAPKLLIYDASTRATGVPSRFSGSGSGTDFTLTISSLQPEDFATYYCQQNMQLPLTFGQGTKVEIKR : 18100

Okay, next one:
GET /values?readout=kon&item= DFPD1-10 full-length anti-PD-1 monoclonal antibody (antibody, human IgG4 S228P, kappa, V domains shown, Expressed in HEK293E cells and purified on protein A) VH: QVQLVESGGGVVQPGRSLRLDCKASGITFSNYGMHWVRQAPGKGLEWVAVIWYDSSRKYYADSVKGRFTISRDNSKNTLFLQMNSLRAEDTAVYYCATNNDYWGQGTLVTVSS VL: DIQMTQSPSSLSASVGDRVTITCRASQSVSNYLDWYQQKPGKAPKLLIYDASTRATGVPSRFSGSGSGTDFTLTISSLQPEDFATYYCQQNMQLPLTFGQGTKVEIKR
32800

Source of measurements: patent US20190144541A1
